- ASSAYED_TARGET: HLA-A*02:01 (human)
- ASSAY_NAME: radioligand competition, purified MHC
- CONDITION_NOTES: remark: other sources report otherwise
REPORTED_METRIC: IC50

// query IC50 value for entry KRVDWTIEY (modifications not checked) [… (SEQ ID NO: 29)]
> 70 µM
